Value source: the nanobody polyreactivity screen of Harvey et al. (2022)

Test: yeast display, Sf9 membrane polyspecificity reagent, FACS + sequencing; frameworks hold sequencing errors
Property label: polyreactivity (PSR sort gate)

Observe how each entry below is paired with its result.
Input sequence: QVQLVESGGGLVQAGGSLRLSCAASGSIFGVYAIGWYRQAPGKERELVATISWSAGSTYYADSVKGRFTISRDNAKNTVYLQMNSLKPEDTAVYYCAAGVRWLGLYDLFTFDYWGQGTQVTVSS
polyreactivity (PSR sort gate): low polyreactivity
//
Input sequence: QVQLVESAGGIVQAGGSLRLSCDASGSIFYYYAMGWYRQAPGKERELVADISYRGSRTFYADSVKGLFTISRDIAKNTVYLQMNSLKPEDTEVYYCAAAYSRYTSRFYYWGQGTQVTVSS
polyreactivity (PSR sort gate): high polyreactivity
//
Input sequence: QVQLVESGGGLVQAGGSLRLSCAASGSIFTRNAMGWYRQAPGKERELVAAITSGGRTYYADSVKGRFTISRDNAKNTVYLQMNSLKPEDTAVYYCNAYAWGWYDYWGQGTQVTVSS
polyreactivity (PSR sort gate): high polyreactivity
//
Input sequence: QVQLVESGGGLVQAGGSLRLSCAASGFTFRYYAMGWYRKAPGKERELVAAITRRGGSKYYADSVKGRFTISRDNAKNTVYLQMNSLKPEDTAVYDCAASLWTTSADYDYWGQGTQVTVSS
polyreactivity (PSR sort gate): high polyreactivity
//
Input sequence: QVQLVESGGGLVQAGGSLRLSCAASGSIFTPYAMGWYRQAPGKERELVAVISWRVDSTYYADSVKGRFTISRDNAKNTVYLQMNSLKPEDTAVYYCAAKSYLLAPFGSGNRWSRYDYWGQGTQVTVSS
polyreactivity (PSR sort gate): high polyreactivity
//
Input sequence: QVQLHESGGGLVQAGGGLRLSCAASGSISSTGFMGWYRQAPGKEREPVAAIAPGTTTYYADSVKGRFTISRDNAKNTVYLQMNSLRPEDTAVFYCAVFTDNRVSFRYWGQGTQVTVSS
polyreactivity (PSR sort gate): low polyreactivity

**Query** Entry `QVQLVESGGGLVQAGGSLRLSCAASGNTLDAYTMGWYRQAPGKERELVAAISRGGTRTYYADSVKGRFTISRDNAKNTVYLQMNSLKPEDTAVYYCNKVRDYSYDSWGQCTQVTVSS` : reported polyreactivity (PSR sort gate) = ?
**Result** high polyreactivity

**Query** Now the sequence `QVQLVESGGGLDQAGGSLRLSCAASGRTFTGNAMGWYRQAPGKERELVAAISSRGSSTYYADSVKGRFTISRDNAKNTVYLQMNSLKPEDTAVYYCAAVWPRPKYVYESDYWGQGTQVTVSS`
**Result** high polyreactivity

**Query** Now the sequence `QVQLVESGGGLVEAGGSLRLSCAASGTFVYNAMGWYIQAPGKERELVAAISWSGSSTYADSVKGRFTISRDNAKNTVYLQMNSLKPEDTAVYYCAADGYGYNTYQQYYKKSSYWGQGTQVSVSS`
**Result** low polyreactivity

**Query** Now the sequence `QVQLVESGGGLVQAGGSLRLSCAASGSTLRYNTMGWYRQAPGKERELVAAISVRGGSTYYADSVKGRFTISRDNAKNTVYLQMNSLKPEDTAVYYCARRIKLGQRQGGYYWGQGTQVTVSS`
**Result** high polyreactivity

**Query** Now the sequence `QVQLVESGGGLVQAGGSLRLSCAASGSTFAIYAMGWYRQAPGKERELVAAISKSGGSTYYADSVKGRFTISRDNAKNTVYLQMNSLKPEDTAVYYCARRQYAFGPYGFYYWGQGTQVTVSS`
**Result** high polyreactivity
